Attribute: Uptake in Tumor
- Test system: MDA-MB-231 tumors
- PROTOCOL_SUMMARY: in vivo
- Type: in vivo, nude mice
- EXPERIMENTAL_CONDITIONS: nude mice with MDA-MB-231 tumors, 1 h p.i.; mean ± SD, n = 3-5
Numbered stars: 1 amine (or outer) side, 2 acyl side, 3 side chain; on linkers, the order of the positions; unused ones are H or OH. Square brackets hold non-standard residues; d marks the D form. Peptide text beside a SMILES is read from it. * marks the point of attachment. DOTA = O=C(O)CN1CCN(CC(=O)O)CCN(CC(=O)*)CCN(CC(=O)O)CC1; Cha = N[C@@H](CC1CCCCC1)C(=O)O; X1 = O=C(CCC(=O)[*:2])CN[*:1]; Nle = CCCC[C@H](N)C(=O)O; Ahx = NCCCCCC(=O)O
The reply should be a number in % ID/g, with the unit left off.

1) CCCC[C@H](NC(=O)[C@H](Cc1c[nH]cn1)NC(=O)[C@H](CC1CCCCC1)NC(=O)[C@@H](NC(=O)[C@H](C)NC(=O)[C@H](Cc1c[nH]c2ccccc12)NC(=O)[C@H](CCC(N)=O)NC(=O)[C@H](CS)NC(=O)CNC(=O)CNC(=O)CCCCCNC(=O)CN1CCN(CC(=O)O)CCN(CC(=O)O)CCN(CC(=O)O)CC1)C(C)C)C(=O)N[C@@H](CCSC)C(N)=O [^68Ga-DOTA-Ahx-BN Cyclen, metal not drawn] ({DOTA-Ahx}-GGCQWAV[Cha]H[Nle]M-NH2) = 2.32

Below: the item to evaluate.
In: Recorded Uptake in Tumor of CCCC[C@H](NC(=O)[C@H](Cc1c[nH]cn1)NC(=O)[C@H](CC1CCCCC1)NC(=O)[C@@H](NC(=O)[C@H](C)NC(=O)[C@H](Cc1c[nH]c2ccccc12)NC(=O)[C@H](CCC(N)=O)NC(=O)[C@H](CS)NC(=O)CNC(=O)CNC(=O)CCC(=O)CNC(=O)CN1CCN(CC(=O)O)CCN(CC(=O)O)CCN(CC(=O)O)CC1)C(C)C)C(=O)N[C@@H](CCSC)C(N)=O [^68Ga-DOTA-ALA-BN Tris-, metal not drawn] ({DOTA}-[X1]GGCQWAV[Cha]H[Nle]M-NH2) , please.
Out: 1.78
